# pEC50 annotations
target: GnRH receptor (Homo sapiens, UniProt P30968); experiment: Receptor binding assay with 125I-triptorelin on transfected LTK cells; conditions: competition with 125I-triptorelin, whole LTK cells, 60 minutes at 37° C.
Sequence (P30968 whole entry): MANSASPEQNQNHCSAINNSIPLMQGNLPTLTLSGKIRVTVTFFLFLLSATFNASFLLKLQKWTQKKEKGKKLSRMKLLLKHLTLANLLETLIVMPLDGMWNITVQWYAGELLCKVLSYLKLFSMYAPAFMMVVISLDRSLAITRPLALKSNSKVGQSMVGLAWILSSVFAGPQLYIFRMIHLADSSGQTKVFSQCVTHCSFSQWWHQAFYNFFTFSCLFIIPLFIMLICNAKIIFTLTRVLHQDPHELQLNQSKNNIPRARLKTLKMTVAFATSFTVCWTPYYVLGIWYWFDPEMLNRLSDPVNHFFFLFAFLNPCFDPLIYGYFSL
pEC50: −log10 of the molar value.
Recorded Endpoint: pEC50

[[record]]
compound = "CC[C@H](C)[C@H](NC(=O)[C@@]1(NC(=O)[C@@H](NC(=O)OCc2ccccc2)[C@@H](C)CC)CCc2[nH]c3c(OC)cccc3c2C1)C(N)=O [Compound 294]"
system_under_test = "GnRH receptor (Homo sapiens, UniProt P30968)"
quantitative_result = 7.44

[[record]]
compound = "CCC(C)[C@H](NC(=O)[C@@]1(NC(=O)[C@H](CC2CCCCC2)NC(=O)OCc2ccccc2)CCc2[nH]c3c(Cl)cc(Cl)cc3c2C1)C(N)=O (some centres unmarked) [Compound 300]"
system_under_test = "GnRH receptor (Homo sapiens, UniProt P30968)"
quantitative_result = 7.64

[[record]]
compound = "CC[C@H](C)[C@H](NC(=O)[C@@]1(NC(=O)[C@H](Cc2ccc(O)cc2)NC(=O)OCc2ccccc2)CCc2[nH]c3c(Cl)cc(Cl)cc3c2C1)C(N)=O [Compound 302]"
system_under_test = "GnRH receptor (Homo sapiens, UniProt P30968)"
quantitative_result = 6.32

[[record]]
compound = "CC[C@H](C)[C@H](NC(=O)[C@@]1(NC(=O)[C@H](CCc2ccc(O)cc2)NC(=O)OCc2ccccc2)CCc2[nH]c3c(Cl)cc(Cl)cc3c2C1)C(N)=O [Compound 303]"
system_under_test = "GnRH receptor (Homo sapiens, UniProt P30968)"
quantitative_result = 7.68

[[record]]
compound = "CC[C@H](C)[C@H](NC(=O)[C@@]1(NC(=O)[C@@H](NC(=O)OCc2ccccc2)[C@@H](C)CC)CCc2[nH]c3c(Cl)cc(Cl)cc3c2C1)C(N)=O [Compound 295]"
system_under_test = "GnRH receptor (Homo sapiens, UniProt P30968)"
quantitative_result = 7.74

[[record]]
compound = "CC[C@H](C)[C@H](NC(=O)[C@@]1(NC(=O)[C@H](CC(C)C)NC(=O)OCc2ccccc2)CCc2[nH]c3c(Cl)cc(Cl)cc3c2C1)C(N)=O [Compound 305]"
system_under_test = "GnRH receptor (Homo sapiens, UniProt P30968)"
quantitative_result = 7.25

[[record]]
compound = "CC[C@H](C)[C@H](NC(=O)[C@@]1(NC(=O)[C@@H](NC(=O)OCc2ccccc2)[C@@H](C)CC)CCc2[nH]c3c(Cl)cc(Cl)cc3c2C1)C(=O)O [Compound 301]"
system_under_test = "GnRH receptor (Homo sapiens, UniProt P30968)"
quantitative_result = 6.27

[[record]]
compound = "CC[C@H](C)[C@H](NC(=O)OCc1ccccc1)C(=O)N[C@]1(C(=O)N[C@@H](CC2CCCCC2)C(N)=O)CCc2[nH]c3c(Cl)cc(Cl)cc3c2C1 [Compound 297]"
system_under_test = "GnRH receptor (Homo sapiens, UniProt P30968)"
quantitative_result = 6.32

[[record]]
compound = "CC[C@H](C)[C@H](NC(=O)OCc1ccccc1)C(=O)N[C@]1(C(=O)N[C@@H](CCc2ccccc2)C(N)=O)CCc2[nH]c3c(Cl)cc(Cl)cc3c2C1 [Compound 299]"
system_under_test = "GnRH receptor (Homo sapiens, UniProt P30968)"
quantitative_result = 5.88

[[record]]
compound = "CC[C@H](C)[C@H](NC(=O)[C@@]1(NC(=O)[C@H](CCc2ccccc2)NC(=O)OCc2ccccc2)CCc2[nH]c3c(Cl)cc(Cl)cc3c2C1)C(N)=O [Compound 304]"
system_under_test = "GnRH receptor (Homo sapiens, UniProt P30968)"
quantitative_result = 7.42

[[record]]
compound = "CC[C@H](C)[C@H](NC(=O)OCc1ccccc1)C(=O)N[C@]1(C(=O)N[C@@H](CC(C)C)C(N)=O)CCc2[nH]c3c(Cl)cc(Cl)cc3c2C1 [Compound 296]"
system_under_test = "GnRH receptor (Homo sapiens, UniProt P30968)"
quantitative_result = 7.66

